// reported cytotoxicity at 10 µM for each item listed
experiment: Toxicity liver stage against HepG2, at 10uM; type: cell-based; design: test concentration 10 uM, cell line HepG2-A16-CD81EGFP; details: human, HepG2-A16-CD81EGFP cells; read-out: INHIBITION
result-type: cytotoxicity at 10 µM (%)

molecule	result-type	unit-text	val
CC(=O)Nc1nc(C(=O)NCCOc2cccc(C)c2)cs1	cytotoxicity at 10 µM	%	-0.794
CN(CCC(=O)N1CCc2sccc2C1)Cc1cnn(C)c1	cytotoxicity at 10 µM	%	-18.6
O=C(CC1CCCC1)N1CCC(c2noc(-c3ccccn3)n2)CC1	cytotoxicity at 10 µM	%	5.05
CCOc1cc(CNc2nnn(C)n2)ccc1OCc1ccc(Cl)cc1	cytotoxicity at 10 µM	%	6.04
NC1(C(=O)N2CCC(c3cc(-c4ccccc4Cl)n[nH]3)CC2)CCC1	cytotoxicity at 10 µM	%	-3.66
CCc1n[nH]c(C2CN(C(=O)c3cc(C(N)=O)cs3)CCO2)n1 (stereo unspecified)	cytotoxicity at 10 µM	%	-17.5
CN(Cc1csc(-c2cnn(C)c2)n1)CC1CCN(CCO)CC1	cytotoxicity at 10 µM	%	7.77
O=C(NCC(=O)N1CCCC1)c1nn(-c2ccccc2F)cc1O	cytotoxicity at 10 µM	%	6.53
CC(O)CNC(=O)CCc1nc2ncccc2[nH]1 (stereo unspecified)	cytotoxicity at 10 µM	%	-3.5
Cc1cc(C2CCC2)nc(N2CC(n3cccn3)C2)n1	cytotoxicity at 10 µM	%	-3.59
COc1cc2nc(C)n(CC(=O)NCCN(C)C)c(=O)c2cc1OC	cytotoxicity at 10 µM	%	-7.18
CS(=O)(=O)N1CCN(c2ccc(Nc3ccccn3)nn2)CC1	cytotoxicity at 10 µM	%	-6.01
Cc1cc(C(=O)Nc2ccc3oc(=O)n(CCN(C)C)c3c2)c(C)o1	cytotoxicity at 10 µM	%	-2.22
O=C1OCCN1Cc1nc(C2(c3ccc(F)cc3)CCOC2)no1 (stereo unspecified)	cytotoxicity at 10 µM	%	-5.22
CCS(=O)(=O)N1CCN(C(C)(C)CO)CC1	cytotoxicity at 10 µM	%	-2.48
O=C(N1CCOCC1)N1CCN(CC(O)c2ccc(F)cc2)CC1 (stereo unspecified)	cytotoxicity at 10 µM	%	-2.42
CCNC(=O)CCC(=O)NC1(c2cccc(Br)c2)CC1	cytotoxicity at 10 µM	%	8.64
COc1ccc(CCC(=O)Nc2cccnc2N2CCCC2)cc1Br	cytotoxicity at 10 µM	%	1.06
O=C(CCc1cc2n(n1)CCCNC2)N1CCC(N2CCOC2=O)CC1	cytotoxicity at 10 µM	%	6.05
CCN1CC2(CC1=O)CN(C(=O)c1ccsc1)CCN(C(=O)N(C)C)C2 (stereo unspecified)	cytotoxicity at 10 µM	%	3.01
Cc1ncc(S(C)(=O)=O)c(N2CCCN(Cc3ccccn3)CC2)n1	cytotoxicity at 10 µM	%	1.46
N#Cc1cc(F)c(NCCc2ccc(F)cc2)c(F)c1	cytotoxicity at 10 µM	%	-60.3
CCc1nnc2n1CCN(Cc1csc(-c3ccccc3F)n1)C2	cytotoxicity at 10 µM	%	-4.49
N#CCCN(CCN1CCOCC1)Cc1ccc(F)c(Br)c1	cytotoxicity at 10 µM	%	-5.01
CN(C)c1ncccc1CNC(=O)CCNc1ncccn1	cytotoxicity at 10 µM	%	-2.22
COc1cccc(C(=O)N2CCC3(CCC(=O)N(C(C)C)C3)CC2)c1C	cytotoxicity at 10 µM	%	-3.21
Cc1nc(C(=O)N2CCC(Cc3cnc4[nH]ccc4c3)C2)co1 (stereo unspecified)	cytotoxicity at 10 µM	%	9.36
O=S(=O)(c1ccccc1)N1CCCC(Cn2cncn2)C1 (stereo unspecified)	cytotoxicity at 10 µM	%	-4.28
O=C(CN1CCSC2(CCCCC2)C1)NCC(F)(F)F	cytotoxicity at 10 µM	%	-6.4
CCC(CC)CNCC1(S(C)(=O)=O)CCOCC1	cytotoxicity at 10 µM	%	0.354
O=C(NCCS(=O)(=O)N1CCN(c2ncccn2)CC1)C1CC1	cytotoxicity at 10 µM	%	-4.15
Cc1cc(C)cc(C2(C(=O)NC(C)Cn3ccnc3)CC2)c1 (stereo unspecified)	cytotoxicity at 10 µM	%	-8.26
CCC(C)N(Cc1cccnc1)Cc1ccccc1Cn1cccn1 (stereo unspecified)	cytotoxicity at 10 µM	%	-43
CC(C)c1nc(CN2CCC(CO)CC2)cs1	cytotoxicity at 10 µM	%	-20.1
COCCO[C@@H]1CCN(C(=O)c2ccc[nH]2)[C@H]1Cc1cnn(C)c1	cytotoxicity at 10 µM	%	-71.7
C=C(C)COc1cccc(C(=O)N(C)C(C)c2ccncn2)c1 (stereo unspecified)	cytotoxicity at 10 µM	%	-50
Cc1ccccc1CN1C[C@@H](C(=O)N2CCCCO2)C[C@H]2OCC[C@H]21	cytotoxicity at 10 µM	%	-68.5
O=C(NCc1ccccc1CN1CCC(O)CC1)Nc1ccccc1	cytotoxicity at 10 µM	%	7.77
Cc1ccc(N2CCCN(C(=O)c3cn(C)c4ccccc34)CC2)nn1	cytotoxicity at 10 µM	%	-9.53
Clc1ccccc1OC1CCN(CC2CCOC2)CC1 (stereo unspecified)	cytotoxicity at 10 µM	%	-9.85
Cc1cc(C)n(CC(=O)NCc2ccccn2)n1	cytotoxicity at 10 µM	%	3.86

Each recorded value in this set is attributed to ChEMBL document CHEMBL4513216.
